# Lookup of reported Kd keyed by entry
SUBJECT OF TEST: Fc-fusion protein of human PSMA (hPSMA-Fc) (Homo sapiens, UniProt Q04609)
Construct: purchased Acro Biosystems PSA-H5264
Sequence (Q04609 44-750 limits assumed): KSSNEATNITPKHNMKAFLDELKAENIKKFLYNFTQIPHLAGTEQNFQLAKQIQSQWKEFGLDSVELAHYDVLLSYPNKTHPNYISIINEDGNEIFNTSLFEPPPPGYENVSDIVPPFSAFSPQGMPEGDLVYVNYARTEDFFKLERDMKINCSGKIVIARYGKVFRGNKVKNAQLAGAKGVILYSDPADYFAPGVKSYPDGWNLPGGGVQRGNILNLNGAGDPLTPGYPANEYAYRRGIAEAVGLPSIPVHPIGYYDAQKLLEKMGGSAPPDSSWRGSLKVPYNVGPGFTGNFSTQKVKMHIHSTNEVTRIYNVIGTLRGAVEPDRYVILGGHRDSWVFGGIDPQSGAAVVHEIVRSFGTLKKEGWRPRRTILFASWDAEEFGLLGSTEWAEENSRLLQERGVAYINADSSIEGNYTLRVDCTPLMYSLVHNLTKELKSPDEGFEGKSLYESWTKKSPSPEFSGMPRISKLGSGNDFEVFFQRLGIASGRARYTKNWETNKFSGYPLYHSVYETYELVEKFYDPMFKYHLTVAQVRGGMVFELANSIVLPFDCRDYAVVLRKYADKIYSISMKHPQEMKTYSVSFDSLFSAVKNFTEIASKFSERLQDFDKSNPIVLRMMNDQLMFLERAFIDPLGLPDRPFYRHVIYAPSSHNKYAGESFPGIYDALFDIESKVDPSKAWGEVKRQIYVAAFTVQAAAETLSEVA
ASSAY REMARKS: Surface plasmon resonance assay (Biacore T200, single cycle kinetic)
Format: binding
RECORDED CONDITIONS: PSMA SPR assay, hPSMA-Fc, 25° C.; pKD category; read-out: pKD CAT (converted)
Method: Surface plasmon resonance (SPR) studies were performed using a Biacore™ T200 SPR system. Briefly, polarized light is directed towards a gold-labeled sensor surface, and minimum intensity reflected light is detected. […] For each test compound, SPR raw data in the form of resonance units (RU) were plotted as sensorgrams using the Biacore™ T200 control software. […] The pKD value (negative decadic logarithm of dissociation constant) was calculated using Microsoft Excel.
Numbered stars: 1 amine (or outer) side, 2 acyl side, 3 side chain; on linkers, the order of the positions; unused ones are H or OH. Bridge positions count the residues as written; N and C are the ends. Square brackets hold non-standard residues; d marks the D form. Peptide text beside a SMILES is read from it. * marks the point of attachment. TtdsdLys(DOTA)NH2 = NC(=O)[C@@H](CCCCNC(=O)CN1CCN(CC(=O)O)CCN(CC(=O)O)CCN(CC(=O)O)CC1)NC(=O)CCC(=O)NCCCOCCOCCOCCCN*; DOTA = O=C(O)CN1CCN(CC(=O)O)CCN(CC(=O)*)CCN(CC(=O)O)CC1; X13 = C/N=C(/NC)N(C)CCC[C@H](N[*:1])C(=O)[*:2]; Phe(4-Cl) = N[C@@H](Cc1ccc(Cl)cc1)C(=O)O; X1 = O=C(CC1CCN([*:1])CC1)[*:2]; Cit = NC(=O)NCCC[C@H](N)C(=O)O; Lys(Me) = CNCCCC[C@H](N)C(=O)O; Tle = CC(C)(C)[C@H](N)C(=O)O; Aib = CC(C)(N)C(=O)O

{"MOLECULE": "CC(=O)N[C@H](C(=O)NC(C)(C)C(=O)N[C@@H](Cc1ccccc1)C(=O)N[C@H]1CSSC[C@@H](C(=O)N[C@H](C(=O)N[C@H](C(=O)N[C@@H](CC(=O)O)C(N)=O)[C@@H](C)O)C(C)(C)C)NC(=O)[C@H](CC(N)=O)NC(=O)C(C)(C)NC(=O)[C@H](CCCNC(N)=O)NC(=O)[C@H](CCCCN)NC1=O)[C@@H](C)O [PSM-0280] (Ac-T[Aib]FCK[Cit][Aib]NC[Tle]TD-NH2; disulfide 4-9)", "SUBJECT OF TEST": "Fc-fusion protein of human PSMA (hPSMA-Fc) (Homo sapiens, UniProt Q04609)", "Kd": "< 12.6 nM"}
{"MOLECULE": "C[C@@H](O)[C@H](NC(=O)[C@@H](NC(=O)[C@@H]1CSSC[C@H](NC(=O)[C@H](Cc2ccc(Cl)cc2)NC(=O)[C@@H](CCC(=O)O)NC(=O)[C@@H](NC(=O)CC2CCN(C(=O)CN3CCN(CC(=O)O)CCN(CC(=O)O)CCN(CC(=O)O)CC3)CC2)[C@@H](C)O)C(=O)N[C@@H](CCCCN)C(=O)N[C@@H](CCCNC(=N)N)C(=O)NC(C)(C)C(=O)N[C@@H](CC(N)=O)C(=O)N1)C(C)(C)C)C(N)=O [PSM-0343] ({DOTA}-[X1]T[dE][Phe(4-Cl)]CKR[Aib]NC[Tle]T-NH2; disulfide 5-10)", "SUBJECT OF TEST": "Fc-fusion protein of human PSMA (hPSMA-Fc) (Homo sapiens, UniProt Q04609)", "Kd": "> 501 nM"}
{"MOLECULE": "C/N=C(/NC)N(C)CCC[C@@H]1NC(=O)[C@H](CCCCNC)NC(=O)[C@@H](NC(=O)[C@H](Cc2ccc(Cl)cc2)NC(=O)C(C)(C)NC(=O)[C@@H](NC(=O)CC2CCN(C(=O)CN3CCN(CC(=O)O)CCN(CC(=O)O)CCN(CC(=O)O)CC3)CC2)[C@@H](C)O)CSSC[C@@H](C(=O)N[C@H](C(=O)N[C@H](C(N)=O)[C@@H](C)O)C(C)(C)C)NC(=O)[C@H](CC(N)=O)NC(=O)C(C)(C)NC1=O [PSM-0355] ({DOTA}-[X1]T[Aib][Phe(4-Cl)]C[Lys(Me)][X13][Aib]NC[Tle]T-NH2; disulfide 5-10)", "SUBJECT OF TEST": "Fc-fusion protein of human PSMA (hPSMA-Fc) (Homo sapiens, UniProt Q04609)", "Kd": "< 12.6 nM"}

# input for lookup
Ask: Supply reported Kd belonging to this molecule: CC(=O)N[C@@H](C)C(=O)N[C@@H](Cc1ccccc1)C(=O)N[C@H]1CSSC[C@@H](C(=O)N[C@@H](CC(C)C)C(=O)N[C@H](C(=O)N[C@@H](CC(=O)O)C(=O)NCCCOCCOCCOCCCNC(=O)CCC(=O)N[C@H](CCCCNC(=O)CN2CCN(CC(=O)O)CCN(CC(=O)O)CCN(CC(=O)O)CC2)C(N)=O)[C@@H](C)O)NC(=O)[C@H](CC(N)=O)NC(=O)[C@H](C)NC(=O)[C@H](CCCNC(=N)N)NC(=O)[C@H](CCCCN)NC1=O [PSM-0299] (Ac-AFCKRANCLTD-{TtdsdLys(DOTA)NH2}; disulfide 3-8)
Result: 12.6 to 126 nM
